# Protocol Text: Oral bioavailability in mouse
# Assay type: ADME, organism-based
# Measurement Setup: in vivo
Test Readout: bioavailability

• CC#C[C@@H](CC(=O)O)c1ccc(OCc2cccc(-c3ccc(C(F)(F)F)cc3)c2)cc1 = 67 to 100%

---

# Protocol Text: Oral bioavailability in dog
# Assay type: ADME, organism-based, Canis lupus familiaris
# Measurement Setup: in vivo
Test Readout: bioavailability

* CC#C[C@@H](CC(=O)O)c1ccc(OCc2cccc(-c3ccc(C(F)(F)F)cc3)c2)cc1 | 67 to 100%

---

# Protocol Text: Half life in iv or po dosed rat
# Assay type: ADME, organism-based
# Measurement Setup: in vivo
Test Readout: half-life

* CC#C[C@@H](CC(=O)O)c1ccc(OCc2cccc(-c3ccc(C(F)(F)F)cc3)c2)cc1 | 7.2 to 28 h
